- target-of-assay: T1, purified interference factor(s), Donor B
- T1 construct: also called interference in serum from Donor B
- test-summary: SPR, interference factor immobilized
measured-attribute: % of binding of reference (=100%)

Here is how some binders turned out for % of binding of reference (=100%).
QUERY: Give the value of % of binding of reference (=100%) reported for the following: SEQ ID NO: 75 (VHH, Ex. 8) VHH: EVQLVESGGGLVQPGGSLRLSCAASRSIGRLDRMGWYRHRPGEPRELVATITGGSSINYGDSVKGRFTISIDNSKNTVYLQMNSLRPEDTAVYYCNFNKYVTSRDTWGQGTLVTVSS
RESULT: 11%

QUERY: Give the value of % of binding of reference (=100%) reported for the following: SEQ ID NO: 84 (VHH, Ex. 8) VHH: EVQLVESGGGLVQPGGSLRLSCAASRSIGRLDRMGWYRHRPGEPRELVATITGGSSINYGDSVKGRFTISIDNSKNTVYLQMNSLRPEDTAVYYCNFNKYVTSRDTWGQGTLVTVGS
RESULT: 50%

QUERY: Give the value of % of binding of reference (=100%) reported for the following: SEQ ID NO: 69 (VHH, Ex. 8) VHH: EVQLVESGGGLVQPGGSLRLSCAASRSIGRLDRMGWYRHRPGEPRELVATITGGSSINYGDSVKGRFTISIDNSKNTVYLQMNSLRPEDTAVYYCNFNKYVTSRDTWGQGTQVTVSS
RESULT: 120%

Now consider the entry below.
QUERY: Give the value of % of binding of reference (=100%) reported for the following: SEQ ID NO: 86 (VHH, Ex. 8) VHH: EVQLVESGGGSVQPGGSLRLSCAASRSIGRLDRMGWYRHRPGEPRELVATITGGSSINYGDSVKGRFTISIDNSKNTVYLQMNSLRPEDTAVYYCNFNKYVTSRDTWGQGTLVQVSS
RESULT: 6%

Entry source: patent US20200216532A1
